These data points were gathered from PubChem BioAssay.

As shown below, each of these compounds has a reported composite z-score value.
# MEASURED_TARGET: Carbonic anhydrase 2 (Homo sapiens)
# MEASUREMENT_DESCRIPTION: CAII small-molecule binders, profiling panel, biochemical, small-molecule microarray, Alexa647-labelled CAII (AID 1122)
# APPLIED_CONDITIONS: CAII-A647 binding fluorescence, higher = more signal
Answer with the value's number alone.

Before answering, review these 3 worked examples.
INSERT INTO assay_data (compound, readout_name, observed_value) VALUES
  ('C=C(/C(=C/C[C@@H](OC(C)=O)c1ccc(CO)o1)c1cc(C(=O)OC)ccc1OC)C(C)C', 'composite z-score', 0.662),
  ('CCOC(=O)C[C@H]1[C@H](OC(=O)c2ccc(-c3ccccc3)cc2)[C@@H](NC(=O)CC(C)C)c2cc(OCCCO)ccc2N1C(=O)c1ccccc1', 'composite z-score', 0.108),
  ('C=CCC(OC(C)=O)[C@@H]1[C@@H](N(Cc2ccc(-c3ccccc3)cc2)C(=O)Cc2ccc(F)cc2)c2cc(OCCCO)ccc2N1C(=O)Cc1ccc2ccccc2c1 (some centres undefined)', 'composite z-score', 0.244);

Next, consider the following compound.
Request: Which composite z-score reading was recorded for the compound COc1cccc(/C=C(\C#N)C(=O)Nc2c(C)n(C)n(-c3ccccc3)c2=O)c1 ?
Result: 0.767

----------
# MEASUREMENT_DESCRIPTION: HepG2 liver cancer cell viability effects, profiling panel, resazurin fluorescence, 24 h, PK04 Diversity Set (AID 1172); also: test concentration not given here
# APPLIED_CONDITIONS: higher = more signal
Classification field: TRUE = z-score at or over 0.5; FALSE = z-score under 0.5.

Worked examples, 5 molecules total:
INSERT INTO results (molecule, class_name) VALUES
  ('CCOC(=O)C=Cc1cc(F)ccc1O', 'FALSE'),
  ('CC(C)(C)OC(=O)CC[C@]12N=C(c3ccc(OCCCO)cc3)O[C@H]1c1ccccc1N(Cc1ccccc1)C2=O', 'TRUE'),
  ('COCC(=C=CC[C@@H](O)c1ccc(OCCO)cc1)CCO', 'TRUE'),
  ('COCCOC(=O)N1C(=O)[C@@]2(c3cc(C#CCNC(N)=O)ccc31)[C@H](c1ccc(O)cc1)N1[C@H](c3ccccc3)[C@H](c3ccccc3)OC(=O)[C@H]1[C@@H]2C(=O)N1CCN(c2ncccn2)CC1', 'FALSE'),
  ('CN(C)CCCCCCNC(=O)[C@@H]1C[C@@H]2C(=O)N[C@@H](CCCCN)C(=O)N2[C@@H]1c1ccc(O)cc1', 'FALSE');

Request: API: above_or_equal(metric=z-score, cutoff=0.5) for item COCCOC(=O)N1C(=O)[C@@]2(c3cc(C#CCC(C(=O)OC)C(=O)OC)ccc31)[C@H](c1ccc(OCCO)cc1)N1[C@H](c3ccccc3)[C@H](c3ccccc3)OC(=O)[C@H]1[C@@H]2C(=O)Nc1nc2ccccc2s1
Result: TRUE

Request: API: above_or_equal(metric=z-score, cutoff=0.5) for item O=C1C2C=CC(C(O)C=Cc3ccc([N+](=O)[O-])cc3)N(Nc3ccccc3)C2C(=O)N1c1ccccc1 (centres undefined)
Result: FALSE

Request: API: above_or_equal(metric=z-score, cutoff=0.5) for item COCCOC(=O)N1C(=O)[C@@]2(c3cc(C#CCCO)ccc31)[C@H](c1ccccc1OCCO)N1[C@H](c3ccccc3)[C@H](c3ccccc3)OC(=O)[C@H]1[C@@H]2C(=O)N1CCCCCCC1
Result: TRUE

Request: API: above_or_equal(metric=z-score, cutoff=0.5) for item C=CCOC(=O)[C@H]1[C@@H]2C(=O)O[C@@H](c3ccccc3)[C@@H](c3ccccc3)N2[C@@H](c2ccc(OCCOC(=O)[C@H]3C[C@H]4C(=O)N[C@@H](CCCCNC(C)=O)C(=O)N4[C@H]3c3cccc(OCCO)c3)cc2)[C@]12C(=O)Nc1ccc(I)cc12
Result: FALSE

Request: API: above_or_equal(metric=z-score, cutoff=0.5) for item [N-]=[N+]=NCc1ccccc1[C@@H]1OC(c2ccc(OCCCO)cc2)=N[C@]1(Cc1ccccc1N=[N+]=[N-])C(=O)N1CCCCC1
Result: TRUE

Request: API: above_or_equal(metric=z-score, cutoff=0.5) for item COC(=O)[C@@]1(Cc2ccccc2CN=[N+]=[N-])N=C(c2ccc(OCCCO)cc2)O[C@H]1c1ccccc1CN=[N+]=[N-]
Result: FALSE

Request: API: above_or_equal(metric=z-score, cutoff=0.5) for item CCCCC(=C=CC[C@H](O)c1ccc(OCCO)cc1)C[C@H](O)COCc1ccccc1
Result: FALSE

Request: API: above_or_equal(metric=z-score, cutoff=0.5) for item CN(C)CCCNC(=O)[C@@H]1c2ccccc2C(=O)N(C2CCCCC2)[C@H]1c1ccc(CO)cc1
Result: TRUE

Request: API: above_or_equal(metric=z-score, cutoff=0.5) for item NCCCCCNC(=O)[C@@H]1C[C@@H]2C(=O)N3CCC[C@H]3C(=O)N2[C@@H]1c1ccc(O)cc1
Result: FALSE
